- Test system: SW48 KRas Kras G12D cells
- protocolText: Cancer cell growth inhibition (cell proliferation), SW48 Kras G12D
- Type: cell-based
- assayContext: Homo sapiens, with fixed Quinicrine 1 μM
measurementType: IC50 (µM)
Number in µM, nothing else.

[H]/N=C(/N)N/C(=N/[H])NCCc1ccccc1 23.4

Consider the compound shown here: `CN(C)C(=N)N=C(N)N` What is its recorded IC50?
1100

---

- Tested on: SW48 KRas Kras G12D cells
- protocolText: Cancer cell growth inhibition (cell proliferation), SW48 Kras G12D
- Type: cell-based
- assayContext: Homo sapiens, with fixed Primaquine 3 μM
pIC50: −log10 of the molar value.
measurementType: pIC50

Consider the compound shown here: `CN(C)C(=N)N=C(N)N` What is its recorded pIC50?
< 2.00

---

- Tested on: SW48 KRas Kras G12V cells
- protocolText: Cancer cell growth inhibition (cell proliferation), SW48 Kras G12V
- Format: cell-based
- assayContext: Homo sapiens, with fixed Chloroquine 3 μM
measurementType: IC50

Consider the molecule shown here: [H]/N=C(/N)N/C(=N/[H])NCCc1ccccc1 [Phenformin, phenformin] What is its recorded IC50?
4.5 µM

---

pIC50 overview
- Test system: SW48 KRas Kras G12V cells
- protocolText: Cancer cell growth inhibition (cell proliferation), SW48 Kras G12V
- Assay type: cell-based
- assayContext: Homo sapiens, with fixed Quinicrine 3 μM
Just the number, please; pIC50 means minus log10 of the concentration in mol/L.

CN(C)C(=N)N=C(N)N 3.30

Below: the item to evaluate.
Consider the compound shown here: `[H]/N=C(/N)N/C(=N/[H])NCCc1ccccc1` What is its recorded pIC50?
5.37

---

- System: SW48 KRas Kras G12D cells
- protocolText: Cancer cell growth inhibition (cell proliferation), SW48 Kras G12D
- Assay type: cell-based
- assayContext: Homo sapiens, with fixed Chloroquine 3 μM
measurementType: IC50
A bare number is not enough; add the unit after it.

Consider the compound shown here: `[H]/N=C(/N)N/C(=N/[H])NCCc1ccccc1` What is its recorded IC50?
16.2 µM
